# target.or.system: Gastrin/cholecystokinin type B receptor (Homo sapiens)
# Sequence (P32239 whole entry): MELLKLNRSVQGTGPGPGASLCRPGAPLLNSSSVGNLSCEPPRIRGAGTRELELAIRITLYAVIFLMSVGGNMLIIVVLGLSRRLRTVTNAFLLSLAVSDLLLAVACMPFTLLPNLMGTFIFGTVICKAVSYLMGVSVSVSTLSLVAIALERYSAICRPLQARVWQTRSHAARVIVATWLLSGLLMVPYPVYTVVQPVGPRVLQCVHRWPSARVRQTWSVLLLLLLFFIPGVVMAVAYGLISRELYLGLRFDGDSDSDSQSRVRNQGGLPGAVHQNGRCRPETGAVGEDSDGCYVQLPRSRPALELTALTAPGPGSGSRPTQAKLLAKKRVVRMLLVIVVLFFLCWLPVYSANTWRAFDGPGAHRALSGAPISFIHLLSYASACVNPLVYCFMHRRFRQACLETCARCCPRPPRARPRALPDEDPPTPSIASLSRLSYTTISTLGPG
Record: compiled Ki on Gastrin/cholecystokinin type B receptor (Homo sapiens) from multiple reports.
Lab note - cut at 2000 nM for Ki: Yes if strictly below, No if not.

> print(dat)
                               smiles.string  group
 1  Cc1nnc(-c2cccc(S(=O)(=O)Nc3cc(Br)ccc3C(=O)N3CCCCC3)c2)o1     No
 2  COC(=O)c1sc(C(F)(F)F)c(-c2ccccc2)c1S(=O)(=O)Nc1cc(Br)ccc1C(=O)N1CCCCC1     No
 3  O=C(c1ccc(Br)cc1NS(=O)(=O)c1cccc2scnc12)N1CCCCC1    Yes
 4  O=C(N[C@H](Cc1ccccc1)C(=O)O)c1ccc(Cl)cc1NS(=O)(=O)c1cccc2nsnc12    Yes
 5  O=C(NCCc1ccccc1)c1ccc(Br)cc1NS(=O)(=O)c1cccc2nsnc12    Yes
 6  O=C(NCCCc1ccccc1)c1ccc(Cl)cc1NS(=O)(=O)c1cccc2nsnc12    Yes
 7  Cc1nc(-c2ccc(S(=O)(=O)Nc3cc(Br)ccc3C(=O)N3CCCCC3)s2)cs1     No
 8  O=C(c1ccc(Br)cc1NS(=O)(=O)c1c(Cl)nc2sccn12)N1CCCCC1    Yes
 9  O=C(N[C@H](Cc1ccc(Cl)cc1)C(=O)O)c1ccc(Cl)cc1NS(=O)(=O)c1cccc2nsnc12    Yes
10  O=C(c1ccc(Br)cc1NS(=O)(=O)c1csc2ccccc12)N1CCCCC1     No
11  O=C(c1ccc(Br)cc1NS(=O)(=O)c1sc(Cl)cc1Br)N1CCCCC1    Yes
12  O=C(N[C@@H](Cc1ccccc1)C(=O)O)c1ccc(Cl)cc1NS(=O)(=O)c1cccc2nsnc12    Yes
13  O=C(NCC(c1ccc(Cl)cc1)c1ccc(Cl)cc1)c1ccc(Cl)cc1NS(=O)(=O)c1cccc2nsnc12     No
